The entries below are paired with their reported pIC50.
Molecular target: UniProt P43088
Assay: In vitro test of inhibition of human FP receptor activity (PGF2α-induced calcium flux in FP-expressing CHEM1 cells)
Details: PGF2α-induced (2 nM) calcium flux in FP-expressing CHEM1 cells; some as mean values from multiple determinations
pIC50: −log10 of the molar value.
METRIC: pIC50

Cc1c(-c2ccccc2)nc2ccc(Br)cc2c1C(=O)NCC(CCC(=O)O)c1ccccc1OC(F)(F)F (racemic) [Example 209] = 8.74
Cc1c(-c2ccccc2)nc2ccc(Br)cc2c1C(=O)NCC(F)(C(=O)O)c1ccccc1 (racemic) [Example 38] = 7.33
Cc1c(-c2ccccc2)nc2ccc(Br)cc2c1C(=O)NCC(C)(CC(=O)O)c1ncccc1Cl (single isomer, unassigned; (-)) [Example 85] = 7.80
Cc1c(-c2ccccc2)nc2ccc(Br)cc2c1C(=O)NCC(CCC(=O)O)c1cccc(F)c1Cl (racemic) [Example 184] = 8.11
Cc1c(-c2ccccc2)nc2ccc(Br)cc2c1C(=O)NCC(CC(=O)O)c1ccccc1OC(F)(F)F (single isomer, unassigned; (-)) [Example 100] = 7.70
Cc1c(-c2ccccc2)nc2ccc(Br)cc2c1C(=O)NCC(CC(=O)O)c1c(Cl)cccc1Cl (single isomer, unassigned) [Example 79] = 6.85
Cc1c(-c2ccccc2)nc2ccc(Br)cc2c1C(=O)NCC(C(=O)O)c1cccc(Cl)c1 (single isomer, unassigned; (-)) [Example 48] = 7.48
Cc1cccc(C(CNC(=O)c2c(C)c(-c3ccccc3)nc3ccc(Br)cc23)C(=O)O)c1 (racemic) [Example 50] = 7.10
Cc1c(-c2ccccc2)nc2ccc(Br)cc2c1C(=O)NCC(C)(CC(=O)O)c1ccccc1F (single isomer, unassigned; (-)) [Example 116] = 7.13
Cc1c(-c2ccccc2)nc2ccc(Br)cc2c1C(=O)NCC(C)(CC(=O)O)c1ncccc1Cl (single isomer, unassigned; (+)) [Example 86] = 6.62
Cc1c(-c2ccccc2)nc2ccc(Br)cc2c1C(=O)NCC(C)(CCCC(=O)O)c1ccccc1Cl (racemic) [Example 240] = 7.62
Cc1c(-c2ccccc2)nc2ccc(Br)cc2c1C(=O)NCC(C)(CCCC(=O)O)c1ccccc1 (single isomer, unassigned; (-)) [Example 244] = 7.70

====

Molecular target: FP receptor (Homo sapiens (Human), UniProt P43088)
Sequence (P43088 whole entry): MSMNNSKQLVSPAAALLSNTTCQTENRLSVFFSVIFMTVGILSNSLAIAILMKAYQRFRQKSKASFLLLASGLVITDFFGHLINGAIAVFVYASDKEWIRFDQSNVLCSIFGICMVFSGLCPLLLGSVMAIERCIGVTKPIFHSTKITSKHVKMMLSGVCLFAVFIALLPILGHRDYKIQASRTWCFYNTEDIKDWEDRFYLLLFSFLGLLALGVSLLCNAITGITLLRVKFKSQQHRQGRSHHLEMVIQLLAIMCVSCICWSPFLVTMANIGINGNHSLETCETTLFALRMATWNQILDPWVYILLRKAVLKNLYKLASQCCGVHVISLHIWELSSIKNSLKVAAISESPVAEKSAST
Assay: In vitro test of inhibition of human FP receptor activity (PGF2α-induced calcium flux in FP-expressing CHEM1 cells)
Details: PGF2α-induced (2 nM) calcium flux in FP-expressing CHEM1 cells; some as mean values from multiple determinations
Source text: Table 1 below lists the IC50 values from this assay for individual working examples of the invention (some as mean values from multiple independent individual determinations): […]
pIC50: −log10 of the molar value.
I would appreciate it if you labelled entries yes when pIC50 is 7 or higher, otherwise no.

Cc1c(-c2ccccc2)nc2ccc(Br)cc2c1C(=O)NCC(CCC(=O)O)c1cc(F)ccc1Cl (racemic) [Example 163] = yes
Cc1c(-c2ccccc2)nc2ccc(Br)cc2c1C(=O)NCC(C)(CCC(=O)O)c1cc(F)ccc1Cl (single isomer, unassigned; (+)) [Example 171] = yes
O=C(O)CCC(CNC(=O)c1c(Cl)c(-c2ccccc2)nc2ccc(Br)cc12)c1c(F)ccc(F)c1Cl (single isomer, unassigned; (+)) [Example 223] = yes
Cc1ccc(C(CNC(=O)c2c(C)c(-c3ccccc3)nc3ccc(Br)cc23)CC(=O)O)cc1 (single isomer, unassigned; (-)) [Example 92] = no
Cc1c(-c2ccccc2)nc2ccc(Br)cc2c1C(=O)NCC(C)(CCC(=O)O)c1ccccc1Cl (single isomer, unassigned; (+)) [Example 156] = yes
Cc1c(-c2ccccc2)nc2ccc(Br)cc2c1C(=O)NCC(C)(CC(=O)O)c1ccccn1 (racemic) [Example 117] = no
Cc1c(-c2ccccc2)nc2ccc(Br)cc2c1C(=O)NCC(C(=O)O)c1ccc2c(c1)OCO2 (racemic) [Example 23] = no
Cc1c(-c2ccccc2)nc2ccc(Br)cc2c1C(=O)NCC(C(=O)O)c1ccccc1 (single isomer, unassigned; (+)) [Example 3] = no

Source: patent US11136296B2
